# Tested on: BDF1 mice, P388 leukemia ip, median survival T/C
# PROTOCOL SUMMARY: NCI In Vivo Anticancer Drug Screen. Data for tumor model P388 Leukemia (intraperitoneal) in B6D2F1 (BDF1) mice
# APPLIED CONDITIONS: endpoint: median survival time; dose: 50.0 mg/kg/injection; schedule: Q01DX009 (ip); vehicle: water; higher = longer survival
# Protocol: The antitumor activity of compounds was measured in mice bearing transplantable tumors. Survival or tumor size were measured and the results are expressed as the measurement made in the treated group (T) divided by the measurement made in the vehicle treated control group (C). The tumor model used in this assay is P388 Leukemia (intraperitoneal) in B6D2F1 (BDF1) mice
Toxic doses and inconclusive results are not listed.
Reported T/C values for a set of compounds
QUANTITY: T/C

| ENTRY SMILES | SUBJECT OF TEST | ENDPOINT VALUE |
| --- | --- | --- |
| Cc1nc(C(=O)O)c(=O)[nH]c1C | BDF1 mice, P388 leukemia ip, median survival T/C | 114 % of control |
| O=C(/C=C\c1ccnc2ccccc12)c1ccc([N+](=O)[O-])cc1 | BDF1 mice, P388 leukemia ip, median survival T/C | 117 % of control |
| c1ccc(CN(CCNc2ccccc2)c2ccccc2)cc1 | BDF1 mice, P388 leukemia ip, median survival T/C | 92 % of control |
